Test system: Sphaerotheca fuliginea
Experiment: Example E: Sphaerotheca test (cucumber)/protective
Format: in vivo
Details: protective, 100 g/ha, 10 days after inoculation, vs untreated control
RESULT TYPE: Efficacy in %

>>> measured_result("CON=C(C1=NOCCO1)c1ccccc1Oc1nccc(OCC(F)(F)C(F)(F)F)n1 [drawing 43]")
"92%"
>>> measured_result("CON=C(C1=NOCCO1)c1ccccc1Oc1nccc(OCC(F)(F)C(F)(F)F)n1 [Example 8]")
"more than 90%"
>>> measured_result("CON=C(C1=NOCCO1)c1ccccc1Oc1nccc(OCC(Cl)(Cl)Cl)n1")
"more than 90%"
>>> measured_result("CCCOc1ccnc(Oc2ccccc2C(=NOC)C2=NOCCO2)n1")
"more than 90%"

---

# chromatographic logP per record follows
Test: HPLC logP
Assay type: physicochemical
Conditions: Table 1
Give the value as a plain number.

Below are worked cases with known answers.
>>> measured_result("CON=C(C1=NOCCO1)c1ccccc1Oc1nccc(SCc2ccccc2)n1")
3.14
>>> measured_result("CON=C(C1=NOCCO1)c1ccccc1Oc1nccc(OC(C)c2ccccc2Cl)n1 (centres unmarked)")
3.4

Qu. Any idea what its chromatographic logP is? The compound is CCCCCCCCOc1ccnc(Oc2ccccc2C(=NOC)C2=NOCCO2)n1
Ans. 4.7

Qu. CON=C(C1=NOCCO1)c1ccccc1Oc1nccc(OC(C)C(F)(F)F)n1 (centres unmarked) , same question.
Ans. 2.9

Qu. CCCCCCOc1ccnc(Oc2ccccc2C(=NOC)C2=NOCCO2)n1 , same question.
Ans. 3.8

---

Assay: HPLC logP
Format: physicochemical
Settings: Table 1
RESULT TYPE: chromatographic logP

Below are worked cases with known answers.
>>> measured_result("CON=C(C1=NOCCO1)c1ccccc1Oc1nccc(OCCCCCc2ccccc2)n1")
4.1
>>> measured_result("CON=C(C1=NOCCO1)c1ccccc1Oc1nccc(OCC2(C)CC2(Cl)Cl)n1 (stereo not drawn)")
3.3
>>> measured_result("CON=C(C1=NOCCO1)c1ccccc1Oc1nccc(OCC(Cl)Cl)n1")
2.7
>>> measured_result("CON=C(C1=NOCCO1)c1ccccc1Oc1nccc(OCc2ccc(SC)cc2)n1")
2.1
>>> measured_result("CON=C(C1=NOCCO1)c1ccccc1Oc1nccc(OCc2ccc(OC)cc2)n1")
2.8
>>> measured_result("CON=C(C1=NOCCO1)c1ccccc1Oc1nccc(OCCC(F)(F)F)n1")
2.6

Qu. Any idea what its chromatographic logP is? The molecule is CON=C(C1=NOCCO1)c1ccccc1Oc1nccc(OCc2ccccc2F)n1
Ans. 2.9

Qu. CON=C(C1=NOCCO1)c1ccccc1Oc1nccc(OCCc2ccccc2F)n1 , same question.
Ans. 3.2

Qu. CON=C(C1=NOCCO1)c1ccccc1Oc1nccc(OCc2cccc(F)c2)n1 , same question.
Ans. 3

Qu. CCOc1ccnc(Oc2ccccc2C(=NOC)C2=NOCCO2)n1 , same question.
Ans. 2.2

Qu. CON=C(C1=NOCCO1)c1ccccc1Oc1nccc(OCCc2ccc(Cl)cc2)n1 , same question.
Ans. 3.5

Qu. CCCCOc1ccnc(Oc2ccccc2C(=NOC)C2=NOCCO2)n1 , same question.
Ans. 3

Qu. CON=C(C1=NOCCO1)c1ccccc1Oc1nccc(OCC(F)(F)C(F)(F)F)n1 , same question.
Ans. 3.1

Qu. CON=C(C1=NOCCO1)c1ccccc1Oc1nccc(SC)n1 , same question.
Ans. 2.2

Qu. CON=C(C1=NOCCO1)c1ccccc1Oc1nccc(OCC=Cc2ccccc2)n1 , same question.
Ans. 3.3

---

Experiment: HPLC logP
Type: physicochemical
Details: Table 1
Cut-off 3 on chromatographic logP: below means yes (1), at or above means no (0).

The following compounds have reported results that may help.
>>> assigned_class("CCCCCOc1ccnc(Oc2ccccc2C(=NOC)C2=NOCCO2)n1")
"no (0)"
>>> assigned_class("CON=C(C1=NOCCO1)c1ccccc1Oc1nccc(OCCc2ccccc2)n1")
"no (0)"
>>> assigned_class("CON=C(C1=NOCCO1)c1ccccc1Oc1nccc(NCCc2ccccc2)n1")
"yes (1)"
>>> assigned_class("CON=C(C1=NOCCO1)c1ccccc1Oc1nccc(OCc2ccc(Cl)cc2)n1")
"no (0)"
>>> assigned_class("CON=C(C1=NOCCO1)c1ccccc1Oc1nccc(N(C)Cc2ccccc2)n1")
"yes (1)"
>>> assigned_class("CON=C(C1=NOCCO1)c1ccccc1Oc1nccc(OC(C)c2ccccc2)n1 (centres unmarked)")
"no (0)"

Qu. Record CON=C(C1=NOCCO1)c1ccccc1Oc1nccc(OC(C)C)n1 : is its chromatographic logP strictly below 3?
Ans. yes (1)

Qu. CON=C(C1=NOCCO1)c1ccccc1Oc1nccc(OCC2CC2)n1 , same question.
Ans. yes (1)

---

Experiment: HPLC logP
Format: physicochemical
Conditions: Table 1
RESULT TYPE: chromatographic logP
Give the value as a plain number.

Below are worked cases with known answers.
>>> measured_result("CCC(C)Oc1ccnc(Oc2ccccc2C(=NOC)C2=NOCCO2)n1 (stereo not drawn)")
2.9
>>> measured_result("C=C(Br)COc1ccnc(Oc2ccccc2C(=NOC)C2=NOCCO2)n1")
2.7

Qu. Any idea what its chromatographic logP is? The compound is C#CCOc1ccnc(Oc2ccccc2C(=NOC)C2=NOCCO2)n1
Ans. 2.1

---

Assay: HPLC logP
Assay type: physicochemical
Details: Table 1
RESULT TYPE: chromatographic logP
Give the value as a plain number.

Below are worked cases with known answers.
>>> measured_result("CON=C(C1=NOCCO1)c1ccccc1Oc1nccc(OCCc2ccc(OC)cc2)n1 [Example 98]")
3
>>> measured_result("CCCCCCCCCOc1ccnc(Oc2ccccc2C(=NOC)C2=NOCCO2)n1 [Example 35]")
5.1
>>> measured_result("CON=C(C1=NOCCO1)c1ccccc1Oc1nccc(OCC(F)(F)F)n1 [Example 3]")
2.6
>>> measured_result("CON=C(C1=NOCCO1)c1ccccc1Oc1nccc(OCCCc2ccccc2)n1 [Example 101]")
3.4
>>> measured_result("CON=C(C1=NOCCO1)c1ccccc1Oc1nccc(OCc2ccc(C)cc2)n1 [Example 16]")
3.2

Now take the following compound into account.
Qu. Any idea what its chromatographic logP is? The compound is C/C=C/C=C/COc1ccnc(Oc2ccccc2C(=NOC)C2=NOCCO2)n1 [Example 165]
Ans. 3.2
